All figures here come from patent US20140072613A1.

# tested on: MSK1 (h) (Homo sapiens)
# Sequence (O75582 whole entry): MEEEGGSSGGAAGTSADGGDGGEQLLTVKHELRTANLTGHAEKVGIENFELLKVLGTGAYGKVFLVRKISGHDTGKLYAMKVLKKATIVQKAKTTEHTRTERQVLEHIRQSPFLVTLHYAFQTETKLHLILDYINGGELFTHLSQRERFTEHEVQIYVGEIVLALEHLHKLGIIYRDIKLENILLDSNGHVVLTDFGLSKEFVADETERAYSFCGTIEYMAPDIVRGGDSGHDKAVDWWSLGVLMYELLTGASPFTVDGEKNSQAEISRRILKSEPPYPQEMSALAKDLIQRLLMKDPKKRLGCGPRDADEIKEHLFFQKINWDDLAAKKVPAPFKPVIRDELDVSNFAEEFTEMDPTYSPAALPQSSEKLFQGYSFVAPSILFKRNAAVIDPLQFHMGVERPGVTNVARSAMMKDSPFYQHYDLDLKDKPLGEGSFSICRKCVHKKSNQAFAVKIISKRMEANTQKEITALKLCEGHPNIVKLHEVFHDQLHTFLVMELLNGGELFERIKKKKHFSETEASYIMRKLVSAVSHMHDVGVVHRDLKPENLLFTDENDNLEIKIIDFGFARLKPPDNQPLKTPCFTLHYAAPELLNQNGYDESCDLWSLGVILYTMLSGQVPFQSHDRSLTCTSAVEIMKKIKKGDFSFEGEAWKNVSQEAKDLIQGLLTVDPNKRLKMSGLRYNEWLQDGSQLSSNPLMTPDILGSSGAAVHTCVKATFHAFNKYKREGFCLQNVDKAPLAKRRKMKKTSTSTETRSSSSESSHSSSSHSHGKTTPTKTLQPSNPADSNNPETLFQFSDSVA
# assay overview: biochemical
Where no end group is shown, it is not given here.
value type: IC50
For clarity, give the value followed by its unit.

Which value of IC50 has been reported for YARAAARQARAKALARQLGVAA [MMI-0100] in the records?
102 µM

====

# tested on: DRAK1 (h) (Homo sapiens, UniProt Q9UEE5)
# Sequence (Q9UEE5 whole entry): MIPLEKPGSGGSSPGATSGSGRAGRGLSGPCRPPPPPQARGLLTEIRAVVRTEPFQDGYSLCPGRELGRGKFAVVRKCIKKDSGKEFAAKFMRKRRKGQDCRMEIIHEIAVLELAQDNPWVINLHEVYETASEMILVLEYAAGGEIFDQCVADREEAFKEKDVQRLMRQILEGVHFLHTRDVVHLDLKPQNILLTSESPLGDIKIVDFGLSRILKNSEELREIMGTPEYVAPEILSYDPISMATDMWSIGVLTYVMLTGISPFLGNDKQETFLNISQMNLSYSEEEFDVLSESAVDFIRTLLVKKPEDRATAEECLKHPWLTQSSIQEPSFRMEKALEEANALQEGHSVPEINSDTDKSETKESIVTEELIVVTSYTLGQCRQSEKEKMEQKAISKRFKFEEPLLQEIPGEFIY
# assay overview: Millipore radiometric kinase assay (IC50 Profiler Express)
# Assay type: biochemical
Where no end group is shown, it is not given here.
value type: IC50 (µM)
Report as a plain number; the unit µM is understood.

Form field: reported IC50 of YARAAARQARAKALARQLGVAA [MMI-0100]
78.3
